- Tested on: UO-31
- method: NCI tumour cell line growth inhibition, 48 h
The source made the active and inactive calls. Cut-off read from the data, not from the text of the source: active = GI50 up to about 1.1 µM and inactive = higher.
readout: GI50

Field: example entries. Status: answers known.
- molecule: "Oc1cc(-c2ccc(F)cc2)nc2ncc(Cl)cc12"
  readout: "GI50"
  result: "> 85.9 µM (inactive)"
- molecule: "CNS(=O)(=O)NN(C)S(=O)(=O)c1ccccc1"
  readout: "GI50"
  result: "> 100 µM (inactive)"
- molecule: "CC1=C(C#N)C2C(=C(N)Oc3ccccc32)C(N)=N1 (stereo not given)"
  readout: "GI50"
  result: "17.4 µM (inactive)"
- molecule: "Clc1ccc(-c2cc(-c3cc4cc(Br)ccc4nc3Cl)on2)cc1"
  readout: "GI50"
  result: "17.3 µM (inactive)"

Now consider the entry below.
Field: GI50 (UO-31). Entry: O=C1c2ccccc2C(=O)c2c1ccc(C(=O)O)c2-c1ccc2ccccc2c1
21.2 µM (inactive)

====

- Tested on: HL-60
- method: NCI tumour cell line growth inhibition, 48 h
Calls of active or inactive are those of the source. Rule as the data show it: active = GI50 up to about 1.1 µM and inactive = higher.
In this section, each of the compounds is paired with its reported GI50.

Field: example entries. Status: answers known.
- compoundStructure: "O=C(/C=C/c1ccccc1)CCC1C(=O)c2ccccc2C1=O"
  GI50: "> 100 µM (inactive)"
- compoundStructure: "COc1cccc(C(=O)N2CCc3ccccc32)c1OC"
  GI50: "27.8 µM (inactive)"

// returns reported GI50 for input Cc1nc(Cl)c2sc(=S)n(-c3ccc(F)cc3)c2n1
7.16 µM (inactive)

====

- Tested on: MOLT-4
- method: NCI tumour cell line growth inhibition, 48 h
Activity calls are given as the source filed them. Rule as the data show it: active = GI50 up to about 1.1 µM and inactive = higher.
Select the matching outcome among y (active), n (inactive)

- compound: "O=C(O)CCC(=O)Nc1ccc2c(c1)S(=O)(=O)N(CC(=O)O)C2=O"
  cat: "n"
- compound: "CC(C)[Si](OC/C(=C/COC(C)(C)C)[C@H]1CC=C(C(=O)c2ccccc2N2CN(C)C(=O)N(C)C2)C1)(C(C)C)C(C)C"
  cat: "y"

Name the outcome recorded for CCN(CC)c1ccc(/C=C/C2=NN(c3cccc(S(=O)(=O)O)c3)C3(C2)C(Cl)C(=O)N3c2nc3ccccc3s2)cc1 (centres undefined) in the assay.
n

Name the outcome recorded for CC1(C)OC(=S)N(c2ccccc2)C12C=Cc1cc3ccccc3cc1O2 (centres undefined) in the assay.
n

Name the outcome recorded for Fc1ccc(Oc2nc3ccccc3nc2-c2ccccc2)cc1 in the assay.
n

Name the outcome recorded for Cc1ccc(C2(N3CCCC3)OC(C)(C)c3cccc4cccc2c34)cc1 (centres undefined) in the assay.
n

====

- System: HL-60
- method: NCI tumour cell line growth inhibition, 48 h
Active and inactive are the calls of the source. Rule as the data show it: active = GI50 up to about 1.1 µM and inactive = higher.
Select the matching outcome among Y = active, N = inactive

- molecule: "NC(=O)/N=C(\\N)NC(=O)c1ccccc1"
  cat: "N"
- molecule: "C=C1C(=O)C23C(CC(OC(C)=O)C1[C@@H]2OC(C)=O)C1(C)C(OC(C)=O)CCC(C)(C)C1C[C@@H]3OC(C)=O (some centres not stated)"
  cat: "Y"
- molecule: "Fc1ccc(Oc2nc3ccccc3nc2-c2ccccc2)cc1"
  cat: "N"

Name the outcome recorded for CC1(C)OC(=S)N(c2ccccc2)C12C=Cc1cc3ccccc3cc1O2 (configuration not stated) in the assay.
N

Name the outcome recorded for COC(=O)/C=C(\S/C(=C(/c1ccc(OC)cc1)n1cc(C(=O)OC)c(C(=O)OC)n1)c1ccc(OC)cc1)C(=O)OC in the assay.
N

Name the outcome recorded for CCCCNc1nc(SC)nc2[nH]cnc12 in the assay.
N

Name the outcome recorded for C=C(C)C1Cc2c(c3ccccc3n(C)c2=O)O1 (configuration not stated) in the assay.
N

Name the outcome recorded for c1ccc2c(CCNC3=NCCO3)cccc2c1 in the assay.
N
